Data origin, for the record: patent US10925876B2

Some compounds, each annotated with its measured Emax.
target: sGC α1/β1 heterodimer (Homo sapiens, UniProt Q02108+Q02153); construct: expressed in transfected cells; assay: Cell-Based sGC Functional Assay (CASA Assay), cGMP generation in CHO-K1/sGC cells;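 further: reference Compound A is a published heme-dependent sGC activator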; conditions: maximum cGMP production of Compound A set to 100% activation, read-out: % Act. (percent activation relative to Compound A)
Sequence (Q02108 whole entry): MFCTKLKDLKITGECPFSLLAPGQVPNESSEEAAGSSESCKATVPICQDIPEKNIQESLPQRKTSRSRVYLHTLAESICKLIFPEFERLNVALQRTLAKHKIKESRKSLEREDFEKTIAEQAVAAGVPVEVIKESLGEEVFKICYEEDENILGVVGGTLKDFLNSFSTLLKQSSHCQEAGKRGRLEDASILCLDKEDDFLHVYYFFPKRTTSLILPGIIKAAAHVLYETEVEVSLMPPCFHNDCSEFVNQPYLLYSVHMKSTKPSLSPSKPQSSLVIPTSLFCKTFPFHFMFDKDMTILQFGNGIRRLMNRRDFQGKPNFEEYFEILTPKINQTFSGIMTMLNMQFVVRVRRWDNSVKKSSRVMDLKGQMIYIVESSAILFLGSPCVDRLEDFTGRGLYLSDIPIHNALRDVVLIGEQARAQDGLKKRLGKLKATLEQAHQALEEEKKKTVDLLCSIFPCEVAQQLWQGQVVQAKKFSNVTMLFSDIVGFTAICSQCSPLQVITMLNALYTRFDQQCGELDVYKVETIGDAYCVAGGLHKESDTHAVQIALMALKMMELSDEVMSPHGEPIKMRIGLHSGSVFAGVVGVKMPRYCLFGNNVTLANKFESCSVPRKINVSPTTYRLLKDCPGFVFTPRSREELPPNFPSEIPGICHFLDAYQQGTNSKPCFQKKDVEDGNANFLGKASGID
Sequence (Q02153 whole entry): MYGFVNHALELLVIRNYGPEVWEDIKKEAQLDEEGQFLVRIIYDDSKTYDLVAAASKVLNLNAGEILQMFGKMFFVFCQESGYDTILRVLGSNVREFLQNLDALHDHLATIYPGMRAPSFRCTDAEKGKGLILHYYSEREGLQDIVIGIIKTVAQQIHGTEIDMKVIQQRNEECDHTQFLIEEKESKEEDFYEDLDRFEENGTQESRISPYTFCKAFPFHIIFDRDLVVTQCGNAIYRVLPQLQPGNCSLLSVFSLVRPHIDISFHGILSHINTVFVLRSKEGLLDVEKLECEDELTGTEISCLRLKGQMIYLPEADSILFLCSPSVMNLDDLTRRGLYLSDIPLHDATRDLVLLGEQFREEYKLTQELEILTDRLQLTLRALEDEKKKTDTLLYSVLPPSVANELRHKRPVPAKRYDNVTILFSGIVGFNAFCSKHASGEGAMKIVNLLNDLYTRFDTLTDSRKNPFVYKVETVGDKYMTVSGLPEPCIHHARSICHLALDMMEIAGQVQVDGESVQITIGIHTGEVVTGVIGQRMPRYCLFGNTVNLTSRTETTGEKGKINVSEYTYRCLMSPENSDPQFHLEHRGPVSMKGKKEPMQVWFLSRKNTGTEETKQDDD

{"compound": "CC1(c2nnc(C(F)(F)F)o2)C(=O)Nc2nc(-c3cn4ncnc4c(CCCC(F)(F)F)n3)nc(N)c21 (stereo not shown) [Example 101A]", "Emax, %": 154}
{"compound": "CC1(c2ccccc2)C(=O)Nc2nc(-c3cn4ncnc4c(CCC(F)(F)C(F)(F)F)n3)nc(O)c21 (stereo not shown) [Example 128B]", "Emax, %": 106}
{"compound": "Nc1nc(-c2cn3ncnc3c(CCC(F)(F)C(F)(F)F)n2)nc2c1C(c1cncc(F)c1)(C1CC1)C(=O)N2 (stereo not shown)", "Emax, %": 177}
{"compound": "CC1(c2nnc(C3(F)CC3)o2)C(=O)Nc2nc(-c3cn4ncnc4c(CCCC(F)(F)F)n3)nc(N)c21 (stereo not shown) [Example 109A]", "Emax, %": 92}
{"compound": "Nc1nc(-c2cn3ncnc3c(CCC(F)(F)C(F)(F)F)n2)nc2c1C(c1ccc(Cl)cn1)(C1CC1)C(=O)N2 (stereo not shown)", "Emax, %": 185}
{"compound": "CC1(c2ccc(Cl)cn2)C(=O)Nc2nc(-c3cn4ncnc4c(CCCC(F)(F)F)n3)nc(N)c21 (stereo not shown) [Example 26A]", "Emax, %": 162}
{"compound": "Cc1nc2c(Cc3ccc(F)cc3)nc(-c3nc(N)c4c(n3)NC(=O)[C@@]4(C)c3ccc(F)cc3)cn2n1 [Example 87B]", "Emax, %": 138}

* * *

target: sGC α1/β1 heterodimer (Homo sapiens, UniProt Q02108+Q02153); construct: expressed in transfected cells; test: Cell-Based sGC Functional Assay (CASA Assay), cGMP generation in CHO-K1/sGC cells;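 further: reference Compound A is a published heme-dependent sGC activator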; conditions: maximum cGMP production of Compound A set to 100% activation, read-out: % Act. (percent activation relative to Compound A)
Some molecules, each annotated with its measured Emax.
property-name: Emax (%)

{"molecule": "CCCCc1nc(-c2nc(N)c3c(n2)NC(=O)C3(C)c2ccc(F)c(F)c2)cn2ncnc12 (stereo not shown) [Example 64B]", "result-value": 90}
{"molecule": "CC(F)(F)c1ccc(C2(C)C(=O)Nc3nc(-c4cn5ncnc5c(CCCC(F)(F)F)n4)nc(N)c32)cn1 (racemic) [Example 45B]", "result-value": 156}
{"molecule": "Cc1nc2c(CCC(F)(F)C(F)(F)F)nc(-c3nc(N)c4c(n3)NC(=O)[C@@]4(C)c3ccc(F)cc3)cn2n1 [Example 88B]", "result-value": 137}
{"molecule": "CC1(c2ccc(C(F)(F)F)cc2)C(=O)Nc2nc(-c3cn4ncnc4c(CCCC(F)(F)F)n3)nc(O)c21 (stereo not shown) [Example 137B]", "result-value": 102}
{"molecule": "N#Cc1ccc(C2(C3CC3)C(=O)Nc3nc(-c4cn5ncnc5c(CCCC(F)(F)F)n4)nc(N)c32)nc1 (stereo not shown) [Example 117A]", "result-value": 140}
{"molecule": "Cc1ccc(C2(C3CC3)C(=O)Nc3nc(-c4cn5ncnc5c(CCC(F)(F)C(F)(F)F)n4)nc(N)c32)nc1 (racemic) [Example 17B]", "result-value": 119}
{"molecule": "Nc1nc(-c2cn3ncnc3c(CCCC(F)(F)F)n2)nc2c1C(c1nnc(C3(F)CC3)o1)(C1CC1)C(=O)N2 (stereo not shown) [Example 108A]", "result-value": 107}
{"molecule": "Cc1ccc(C2(C)C(=O)Nc3nc(-c4cn5ncnc5c(CCC(F)(F)C(F)(F)F)n4)nc(N)c32)nc1 (stereo not shown) [Example 19B]", "result-value": 71}
{"molecule": "CCCc1nc(-c2nc(N)c3c(n2)NC(=O)C3(c2ccc(F)cn2)C2CC2)cn2ncnc12 (stereo not shown) [Example 59A]", "result-value": 119}
{"molecule": "CCCCc1nc(-c2nc(N)c3c(n2)NC(=O)C3(c2ccc(C(F)(F)F)cn2)C2CC2)cn2ncnc12 (stereo not shown) [Example 70A]", "result-value": 133}
{"molecule": "CC1(c2ccccc2)C(=O)Nc2nc(-c3cn4ncnc4c(CCCC(F)(F)F)n3)nc(N)c21 (stereo not shown) [Example 37B]", "result-value": 112}
{"molecule": "CC(C)n1cc(C2(C)C(=O)Nc3nc(-c4cn5ncnc5c(CCC(F)(F)C(F)(F)F)n4)nc(N)c32)nn1 (stereo not shown) [Example 20A]", "result-value": 131}
{"molecule": "CC1(c2nnc(C3CC3)o2)C(=O)Nc2nc(-c3cn4ncnc4c(CCC(F)(F)C(F)(F)F)n3)nc(N)c21 (stereo not shown) [Example 98B]", "result-value": 164}
{"molecule": "CCCCc1nc(-c2nc(N)c3c(n2)NC(=O)C3(C)c2ccc(C)cn2)cn2ncnc12 (stereo not shown) [Example 71B]", "result-value": 118}
{"molecule": "CC1(c2nnc(C(F)F)o2)C(=O)Nc2nc(-c3cn4ncnc4c(CCCC(F)(F)F)n3)nc(N)c21 (stereo not shown) [Example 100A]", "result-value": 184}
{"molecule": "Nc1nc(-c2cn3ncnc3c(CCCC(F)(F)F)n2)nc2c1C(c1ncc(Cl)cn1)(C1CC1)C(=O)N2 (stereo not shown) [Example 41A]", "result-value": 151}
